Provenance of the data: ChEMBL document CHEMBL1933065

// MIC lookup, one value per entry
test system: Cryptococcus neoformans; experiment: Antifungal activity against Cryptococcus neoformans Berkout KCCM 50564 after 1 day by two fold broth dilution method; format: functional; conditions: Berkout KCCM 50564, 24 h
Value expressed in µg/mL; do not type the unit.

Observe how each entry below is paired with its result.
test_smiles=COc1ccn2c3c(c(C)c2c1)C(=O)c1ccccc1C3=O quantity_measured=MIC measurement=25
test_smiles=CCOC(=O)c1c2c(n3ccc(CC)cc13)C(=O)c1ccccc1C2=O quantity_measured=MIC measurement=25
test_smiles=CCOC(=O)c1c2c(n3ccc(C)cc13)C(=O)c1ccccc1C2=O quantity_measured=MIC measurement=6.3
test_smiles=CC(=O)c1c2c(n3ccc(C)cc13)C(=O)C(C)=C(C)C2=O quantity_measured=MIC measurement=1.6
test_smiles=CCc1ccn2c3c(c(C(=O)OC)c2c1)C(=O)C(C)=C(C)C3=O quantity_measured=MIC measurement=0.8
test_smiles=CC(=O)c1c2c(n3cc(Cl)ccc13)C(=O)C(C)=C(C)C2=O quantity_measured=MIC measurement=6.3

[ask] Entry CCOC(=O)c1c2c(n3ccc(C)cc13)C(=O)C(C)=C(C)C2=O : reported MIC = ?
[reply] 12.5

[ask] Entry CCc1ccn2c3c(c(C(C)=O)c2c1)C(=O)c1ccccc1C3=O : reported MIC = ?
[reply] 25

[ask] Entry CCOC(=O)c1c2c(n3ccc(CC)cc13)C(=O)C(C)=C(C)C2=O : reported MIC = ?
[reply] 6.3

[ask] Entry CCOC(=O)c1c2c(n3ccc(OC)cc13)C(=O)c1ccccc1C2=O : reported MIC = ?
[reply] 3.2
